Target: SCD1 (Rattus norvegicus (Rat), UniProt P07308)
Sequence (P07308 whole entry): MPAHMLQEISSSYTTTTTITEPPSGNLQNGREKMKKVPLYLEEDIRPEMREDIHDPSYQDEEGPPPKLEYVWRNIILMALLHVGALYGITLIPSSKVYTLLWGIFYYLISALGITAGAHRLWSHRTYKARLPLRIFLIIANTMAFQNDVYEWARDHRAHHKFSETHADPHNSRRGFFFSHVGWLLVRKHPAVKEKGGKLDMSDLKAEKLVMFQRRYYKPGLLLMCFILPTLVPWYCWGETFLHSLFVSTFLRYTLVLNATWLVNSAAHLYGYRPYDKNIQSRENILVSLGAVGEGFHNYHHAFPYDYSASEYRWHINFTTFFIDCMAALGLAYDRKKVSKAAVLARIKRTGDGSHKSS
Assay: SCD1 enzymatic assay in rat liver microsomes (RLM)
Format: biochemical
Conditions: 1 μM test compound, rat liver microsomes; read-out: % Inh.@ 1 μM
Protocol: Step 1: Preparation of Rat Liver Microsome (RLM): Sprague Dawley rats from Charles River (200-225 g) underwent 2-cycle of fast-re-feeding (24-hour fast followed by 24-hour feeding with fat-free high carbohydrate diet, Reseach Diet, D00042802). The livers were removed and homogenized 1:4 (w/v) with pre-chilled, homogenizing buffer (10 mM Tris-HCl, 0.25 M sucrose, 1 mM EDTA, pH 7.4, supplemented with protease inhibitor cocktail). The homogenate was spun at 12,000×g for 15 min at 4° C. […]
measuredAttribute: inhibition at 1 µM
Reply with the number, then its unit.

Check out these entries, answers already filled in.
[
  {
    "querySmiles": "Cc1cnc(-c2ccc(N3CCC(c4noc5ccc(F)cc45)CC3)nn2)s1",
    "inhibition at 1 µM": "94%"
  },
  {
    "querySmiles": "Cn1cc(-c2ccc(N3CCC(N4CCc5cc(F)ccc54)CC3)nn2)cn1",
    "inhibition at 1 µM": "85%"
  },
  {
    "querySmiles": "Fc1ccc2onc(C3CCN(c4ccc(-c5cccnc5)nn4)CC3)c2c1",
    "inhibition at 1 µM": "86%"
  },
  {
    "querySmiles": "OCCn1cc(-c2ccc(N3CCC(N4CCc5ccc(F)cc54)CC3)nn2)cn1",
    "inhibition at 1 µM": "95%"
  },
  {
    "querySmiles": "Cc1ccn(-c2ccc(N3CCC(c4noc5ccc(F)cc45)CC3)nn2)n1",
    "inhibition at 1 µM": "79%"
  }
]

Parameters: items (list). Returns: inhibition at 1 µM for each item.
1. Cn1cc(-c2ccc(N3CCC(N4CCc5ccc(Cl)cc54)CC3)nn2)cn1
2. Cn1cc(-c2ccc(N3CCC(n4ncc5ccc(Cl)cc54)CC3)nn2)cn1
3. OCc1cnn(-c2ccc(N3CCC(c4noc5ccc(F)cc45)CC3)nn2)c1

result:
1: 99%; 2: 96%; 3: 88%

Parameters: items (list). Returns: inhibition at 1 µM for each item.
1. Cn1cc(-c2ccc(N3CCC(n4nc(Cl)c5ccccc54)CC3)nn2)cn1
2. Cc1cn(-c2ccc(N3CCC(N4CCc5ccc(F)cc54)CC3)nn2)cn1

result:
["102%", "95%"]
